Target: T1, full-length untagged human GPNMB expressed on cells (human, UniProt Q14956 23-572)
T1 sequence: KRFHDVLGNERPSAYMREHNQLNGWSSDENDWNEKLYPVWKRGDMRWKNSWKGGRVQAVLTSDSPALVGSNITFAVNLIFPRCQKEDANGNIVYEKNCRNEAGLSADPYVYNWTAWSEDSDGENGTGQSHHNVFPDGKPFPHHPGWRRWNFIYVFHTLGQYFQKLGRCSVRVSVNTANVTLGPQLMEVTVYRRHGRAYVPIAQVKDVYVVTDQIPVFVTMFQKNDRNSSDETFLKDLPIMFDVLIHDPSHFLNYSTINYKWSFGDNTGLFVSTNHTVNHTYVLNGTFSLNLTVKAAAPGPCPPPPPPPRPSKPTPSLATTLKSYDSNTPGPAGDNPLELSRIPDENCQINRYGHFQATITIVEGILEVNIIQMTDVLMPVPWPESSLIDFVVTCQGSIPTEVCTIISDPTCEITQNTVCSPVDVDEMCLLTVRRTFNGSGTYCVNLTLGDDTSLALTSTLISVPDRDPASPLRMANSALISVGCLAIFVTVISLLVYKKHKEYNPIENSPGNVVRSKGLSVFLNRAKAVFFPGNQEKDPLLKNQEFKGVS
Assay: cell-based or functional assay
reported-metric: EC50 Lyso Tracker (nM)
Enter your answer as a number in nM; do not include the unit.

binder	u	EC50 Lyso Tracker
anti-GPNMB antibody GPN-85 (antibody, V domains shown) VH: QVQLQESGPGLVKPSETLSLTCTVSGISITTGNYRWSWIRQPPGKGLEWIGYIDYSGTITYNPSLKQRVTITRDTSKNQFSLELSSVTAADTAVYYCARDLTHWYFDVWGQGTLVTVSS VL: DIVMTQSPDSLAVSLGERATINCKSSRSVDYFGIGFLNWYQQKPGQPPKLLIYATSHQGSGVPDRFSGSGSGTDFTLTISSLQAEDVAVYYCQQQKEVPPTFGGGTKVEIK	nM	1.39
anti-GPNMB antibody GPN-86 (antibody, V domains shown) VH: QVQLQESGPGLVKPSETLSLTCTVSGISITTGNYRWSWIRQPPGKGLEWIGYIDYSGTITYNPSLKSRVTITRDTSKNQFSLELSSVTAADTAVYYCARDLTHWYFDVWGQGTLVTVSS VL: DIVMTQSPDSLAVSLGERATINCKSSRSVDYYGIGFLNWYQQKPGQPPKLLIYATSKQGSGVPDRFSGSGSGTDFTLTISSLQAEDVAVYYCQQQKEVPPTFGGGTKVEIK	nM	1.2
anti-GPNMB antibody GPN-89 (antibody, V domains shown) VH: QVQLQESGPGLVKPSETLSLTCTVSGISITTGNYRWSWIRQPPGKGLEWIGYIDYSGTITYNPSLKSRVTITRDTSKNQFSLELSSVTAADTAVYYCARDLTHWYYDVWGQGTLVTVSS VL: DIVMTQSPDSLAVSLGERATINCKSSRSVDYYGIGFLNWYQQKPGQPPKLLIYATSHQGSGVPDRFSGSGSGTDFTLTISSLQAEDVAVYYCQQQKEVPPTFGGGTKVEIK	nM	1.18

Next:
What measured EC50 Lyso Tracker goes with anti-GPNMB antibody GPN-82 (antibody, V domains shown) VH: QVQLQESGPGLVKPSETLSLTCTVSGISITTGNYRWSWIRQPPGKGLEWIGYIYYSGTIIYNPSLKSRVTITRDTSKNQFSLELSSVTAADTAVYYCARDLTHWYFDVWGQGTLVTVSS VL: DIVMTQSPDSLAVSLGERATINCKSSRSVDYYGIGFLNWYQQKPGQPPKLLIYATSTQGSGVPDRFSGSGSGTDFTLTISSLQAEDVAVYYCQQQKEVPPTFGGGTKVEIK ?
0.64
